The origin of these recorded values is the supplement of paper PMC9112550.

Test system: Escherichia coli TOP10
Assay: shrunken log2 fold change of peptide-encoding DNA abundance (4.5 h post-induction vs induction); higher = less antimicrobial activity (less host growth inhibition)
Details: time post-induction: 4.5 h; library: site-saturation at positions 5, 18, 19, 20
Kind request: treat 0.2 as inclusive, so shrunken log2 fold change at 0.2 or higher is met, anything lower is not met.

## Task Threshold query (shrunken log2 fold change >= 0.2) on RRIRVRPPRLPRPRPRPWDRPRP
## Result not met

## Task For this sequence, is measured shrunken log2 fold change 0.2 or higher? RRIRKRPPRLPRPRPRPIPEPRP
## Result not met

## Task API: above_or_equal(metric=shrunken log2 fold change, cutoff=0.2) for item RRIRMRPPRLPRPRPRPRQPPRP
## Result met

## Task Kindly determine if shrunken log2 fold change recorded for RRIRDRPPRLPRPRPRPHMHPRP is above or exactly 0.2.
## Result not met

## Task Given RRIRLRPPRLPRPRPRPHTDPRP , state whether its shrunken log2 fold change is at least 0.2.
## Result not met

## Task Does the reported shrunken log2 fold change for RRIRLRPPRLPRPRPRPKIHPRP fall at or above the 0.2 mark?
## Result not met

## Task Could you tell me if the measured shrunken log2 fold change of RRIRMRPPRLPRPRPRPHTRPRP reaches 0.2 or more?
## Result met

## Task Determine whether this sequence has shrunken log2 fold change no lower than 0.2: RRIRLRPPRLPRPRPRPKPKPRP
## Result met

====

System: Escherichia coli TOP10
Experiment: shrunken log2 fold change of peptide-encoding DNA abundance (4.5 h post-induction vs induction); higher = less antimicrobial activity (less host growth inhibition)
Conditions: time post-induction: 4.5 h; library: site-saturation at positions 5, 18, 19, 20
parameter_measured: shrunken log2 fold change

Simply: RRIRPRPPRLPRPRPRPLYRPRP , Escherichia coli TOP10, shrunken log2 fold change = -0.181

GET /values?item= RRIRDRPPRLPRPRPRPACDPRP &system= Escherichia coli TOP10 returns shrunken log2 fold change: 0.472

Item RRIRTRPPRLPRPRPRPHIMPRP was tested on Escherichia coli TOP10; the reported shrunken log2 fold change is -0.738

Known value: Escherichia coli TOP10 shrunken log2 fold change of the sequence RRIRWRPPRLPRPRPRPASDPRP equals 0.342

Case RRIRIRPPRLPRPRPRPPWIPRP , Escherichia coli TOP10, shrunken log2 fold change recorded as -0.173

Record RRIRLRPPRLPRPRPRPIYTPRP / Escherichia coli TOP10, shrunken log2 fold change recorded as -0.377

Form field shrunken log2 fold change for item RRIRCRPPRLPRPRPRPCFPPRP on Escherichia coli TOP10: -0.321

Given the sequence RRIRHRPPRLPRPRPRPKMKPRP and test system Escherichia coli TOP10, the measured shrunken log2 fold change is -0.232

====

Tested on: Escherichia coli TOP10;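 also: peptides expressed intracellularly from a pBAD plasmid library in pooled LB shake-flask culture, induced with 0.3% L-arabinose, DNA abundance read by NGS, three biological replicates, DESeq2 with apeglm shrinkage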
Test: shrunken log2 fold change of peptide-encoding DNA abundance (4.5 h post-induction vs induction); higher = less antimicrobial activity (less host growth inhibition)
Conditions: time post-induction: 4.5 h; library: site-saturation at positions 5, 18, 19, 20
Consider the following sequences; for each one, report its shrunken log2 fold change.
Just the number, please.

# shrunken log2 fold change (sequence: RRIRVRPPRLPRPRPRPPMKPRP ) is -0.117

Documented shrunken log2 fold change of RRIRERPPRLPRPRPRPEACPRP : -0.0166

Form: sequence = RRIRDRPPRLPRPRPRPAMKPRP ; shrunken log2 fold change = -0.0728

The value of shrunken log2 fold change measured for the sequence RRIRGRPPRLPRPRPRPSNCPRP turned out to be 0.0376

Noted for RRIRSRPPRLPRPRPRPCHEPRP : its shrunken log2 fold change reads 0.0697

Reported shrunken log2 fold change ( RRIRIRPPRLPRPRPRPIFDPRP ) = -0.237

For this sequence ( RRIRVRPPRLPRPRPRPMYKPRP ), measured shrunken log2 fold change is -0.608

Looking up RRIRPRPPRLPRPRPRPEMMPRP , I found its shrunken log2 fold change recorded as 0.00381

The value of shrunken log2 fold change measured for the sequence RRIRLRPPRLPRPRPRPGADPRP turned out to be 0.28

Recorded shrunken log2 fold change (sequence RRIRKRPPRLPRPRPRPAVVPRP ): 0.0614

shrunken log2 fold change reported for this sequence RRIRTRPPRLPRPRPRPTRHPRP : 0.237

Entry RRIRNRPPRLPRPRPRPVHEPRP , shrunken log2 fold change reported as -0.00149

# shrunken log2 fold change (sequence: RRIRDRPPRLPRPRPRPWNKPRP ) is -0.117

In plain terms, RRIRVRPPRLPRPRPRPFAHPRP has a documented shrunken log2 fold change of -0.176

For record RRIRNRPPRLPRPRPRPHEYPRP the listed shrunken log2 fold change is -0.048
